assay remarks: xn = mol fraction of the nth substance listed
condition summary: 318.15 K; 100 kPa; Liquid; Cone and plate viscometry; x1 = 0.898
readout name: viscosity (mPa·s)
Return type: number; implicit unit mPa·s.

CCCCCCCCCCCCCC[P+](CCCCCC)(CCCCCC)CCCCCC.N#Cc1ccc[n-]1 [trihexyl(tetradecyl)phosphonium 2-cyanopyrrolide] + CCCCCC[n+]1ccn(C)c1.O=S(=O)([N-]S(=O)(=O)C(F)(F)F)C(F)(F)F
135

Summary for this compound, CCCCCCCCCCCCCC[P+](CCCCCC)(CCCCCC)CCCCCC.O=[N+]([O-])c1cn[n-]c1 [trihexyl(tetradecyl)phosphonium 4-nitropyrazolide] + CCCCCC[n+]1ccn(C)c1.O=S(=O)([N-]S(=O)(=O)C(F)(F)F)C(F)(F)F : viscosity is 187

Summary for this compound, CCCCCCCC[P+](CC)(CC)CC.O=[N+]([O-])c1cn[n-]c1 [triethyloctylphosphonium 4-nitropyrazolide] + CCCCCC[n+]1ccn(C)c1.O=S(=O)([N-]S(=O)(=O)C(F)(F)F)C(F)(F)F : viscosity is 83

Summary for this compound, CCCCCCn1cc[n+](C)c1C.O=[N+]([O-])c1cn[n-]c1 [1-hexyl-2,3-dimethylimidazolium 4-nitropyrazolide] + CCCCCCCCCCCCCC[P+](CCCCCC)(CCCCCC)CCCCCC.O=S(=O)([N-]S(=O)(=O)C(F)(F)F)C(F)(F)F : viscosity is 192

====

condition summary: 348.15 K; 100 kPa; Liquid; Vibrating tube method
± gives the expanded uncertainty stated by the source.
readout name: mass density

CCn1cc[n+](C)c1.O=S(=O)([N-]S(=O)(=O)C(F)(F)F)C(F)(F)F
1469.6 ± 4 kg/m3
CCCCCC[n+]1ccn(C)c1.O=S(=O)([N-]S(=O)(=O)C(F)(F)F)C(F)(F)F
1326.9 ± 4 kg/m3
CCCC[n+]1ccn(C)c1.O=S(=O)([N-]S(=O)(=O)C(F)(F)F)C(F)(F)F
1390.2 ± 4 kg/m3
CCCCCCn1cc[n+](C)c1C.O=S(=O)([N-]S(=O)(=O)C(F)(F)F)C(F)(F)F
1315.8 ± 12 kg/m3

// switching to the query compound
Summary for this compound, CCCCCCCC[P+](CC)(CC)CC.O=[N+]([O-])c1cn[n-]c1 [triethyloctylphosphonium 4-nitropyrazolide] : mass density is 1002.1 ± 12 kg/m3

====

condition summary: 313.15 K; 100 kPa; Liquid; Vibrating tube method
Property: mass density; scope: individual molecules
Return type: number; implicit unit kg/m3.

CCCC[n+]1ccn(C)c1.O=S(=O)([N-]S(=O)(=O)C(F)(F)F)C(F)(F)F
1422.7

Summary for this molecule, CCn1cc[n+](C)c1.O=S(=O)([N-]S(=O)(=O)C(F)(F)F)C(F)(F)F : mass density is 1503.9

Summary for this molecule, CCCCCCn1cc[n+](C)c1C.O=S(=O)([N-]S(=O)(=O)C(F)(F)F)C(F)(F)F : mass density is 1346.4

Summary for this molecule, CCCCCC[n+]1ccn(C)c1.O=S(=O)([N-]S(=O)(=O)C(F)(F)F)C(F)(F)F : mass density is 1358.3

Summary for this molecule, CCCCCCCC[P+](CC)(CC)CC.O=[N+]([O-])c1cn[n-]c1 [triethyloctylphosphonium 4-nitropyrazolide] : mass density is 1022.6

====

assay remarks: xn = mol fraction of the nth substance listed
condition summary: 353.15 K; 100 kPa; Liquid; Vibrating tube method; x1 = 0.25
Numbers after ± are expanded uncertainties.
Property: mass density; scope: individual compounds
Include the unit right after the number.

// worked examples, mass density included
CCCCCCCC[P+](CC)(CC)CC.O=[N+]([O-])c1cn[n-]c1 [triethyloctylphosphonium 4-nitropyrazolide] + CCCCCCn1cc[n+](C)c1C.O=S(=O)([N-]S(=O)(=O)C(F)(F)F)C(F)(F)F
1234 ± 12 kg/m3
CCCCCCCC[P+](CC)(CC)CC.O=[N+]([O-])c1cn[n-]c1 [triethyloctylphosphonium 4-nitropyrazolide] + CCCCCC[n+]1ccn(C)c1.O=S(=O)([N-]S(=O)(=O)C(F)(F)F)C(F)(F)F
1239.5 ± 12 kg/m3
CCCCCCn1cc[n+](C)c1C.O=[N+]([O-])c1cn[n-]c1 [1-hexyl-2,3-dimethylimidazolium 4-nitropyrazolide] + CCCCCCCCCCCCCC[P+](CCCCCC)(CCCCCC)CCCCCC.O=S(=O)([N-]S(=O)(=O)C(F)(F)F)C(F)(F)F
1032.6 ± 12 kg/m3

// switching to the query compound
Summary for this compound, CCCCCCn1cc[n+](C)c1.O=[N+]([O-])c1cn[n-]c1 [1-hexyl-3-methylimidazolium 4-nitropyrazolide] + CCCCCCCCCCCCCC[P+](CCCCCC)(CCCCCC)CCCCCC.O=S(=O)([N-]S(=O)(=O)C(F)(F)F)C(F)(F)F : mass density is 1032.5 ± 4 kg/m3

====

assay remarks: xn = mol fraction of the nth substance listed
condition summary: 323.15 K; 100 kPa; Liquid; Cone and plate viscometry; x1 = 0.9
Numbers after ± are expanded uncertainties.
Property: viscosity; scope: individual compounds
Include the unit right after the number.

CCCCCCn1cc[n+](C)c1.O=[N+]([O-])c1cn[n-]c1 [1-hexyl-3-methylimidazolium 4-nitropyrazolide] + CCCCCCCC[P+](CC)(CC)CC.O=S(=O)([N-]S(=O)(=O)C(F)(F)F)C(F)(F)F
74 ± 9 mPa·s
CCCCCCn1cc[n+](C)c1.N#Cc1ccc[n-]1 [1-hexyl-3-methylimidazolium 2-cyanopyrrolide] + CCCCCCCCCCCCCC[P+](CCCCCC)(CCCCCC)CCCCCC.O=S(=O)([N-]S(=O)(=O)C(F)(F)F)C(F)(F)F
62 ± 8 mPa·s
CCCCCCCC[P+](CC)(CC)CC.O=[N+]([O-])c1cn[n-]c1 [triethyloctylphosphonium 4-nitropyrazolide] + CCCCCCn1cc[n+](C)c1C.O=S(=O)([N-]S(=O)(=O)C(F)(F)F)C(F)(F)F
75 ± 9 mPa·s
CCCCCCCCCC[P+](CC)(CC)CC.O=[N+]([O-])c1cn[n-]c1 [decyltriethylphosphonium 4-nitropyrazolide] + CC[P+](CC)(CC)COCCOC.O=S(=O)([N-]S(=O)(=O)C(F)(F)F)C(F)(F)F
73 ± 9 mPa·s

// switching to the query compound
Summary for this compound, CCCCCCn1cc[n+](C)c1.O=[N+]([O-])c1cn[n-]c1 [1-hexyl-3-methylimidazolium 4-nitropyrazolide] + CCCCCCCCCCCCCC[P+](CCCCCC)(CCCCCC)CCCCCC.O=S(=O)([N-]S(=O)(=O)C(F)(F)F)C(F)(F)F : viscosity is 89 ± 11 mPa·s

====

Property: mass density; scope: individual molecules
condition summary: 283.15 K; 100 kPa; Liquid; Vibrating tube method
Return type: number; implicit unit kg/m3.

CCCCCC[n+]1ccn(C)c1.O=S(=O)([N-]S(=O)(=O)C(F)(F)F)C(F)(F)F
1385.6

Summary for this molecule, CCCC[n+]1ccn(C)c1.O=S(=O)([N-]S(=O)(=O)C(F)(F)F)C(F)(F)F : mass density is 1451.1

Summary for this molecule, CCn1cc[n+](C)c1.O=S(=O)([N-]S(=O)(=O)C(F)(F)F)C(F)(F)F : mass density is 1534.1

Summary for this molecule, CCCCCCCC[P+](CC)(CC)CC.O=[N+]([O-])c1cn[n-]c1 [triethyloctylphosphonium 4-nitropyrazolide] : mass density is 1040.7

Summary for this molecule, CCCCCCn1cc[n+](C)c1C.O=S(=O)([N-]S(=O)(=O)C(F)(F)F)C(F)(F)F : mass density is 1373

====

assay remarks: xn = mol fraction of the nth substance listed
condition summary: 313.15 K; 100 kPa; Liquid; Cone and plate viscometry; x1 = 0.3
Property: viscosity; scope: individual compounds
Return type: number; implicit unit mPa·s.

CCCCCCCCCCCCCC[P+](CCCCCC)(CCCCCC)CCCCCC.N#Cc1ccc[n-]1 [trihexyl(tetradecyl)phosphonium 2-cyanopyrrolide] + CCCCCC[n+]1ccn(C)c1.O=S(=O)([N-]S(=O)(=O)C(F)(F)F)C(F)(F)F
79

Summary for this compound, CC(=O)[O-].CCCCCCCCCCCCCC[P+](CCCCCC)(CCCCCC)CCCCCC [trihexyl(tetradecyl)phosphonium acetate] + CCCCCC[n+]1ccn(C)c1.O=S(=O)([N-]S(=O)(=O)C(F)(F)F)C(F)(F)F : viscosity is 107

Summary for this compound, CCCCCCCCCCCCCC[P+](CCCCCC)(CCCCCC)CCCCCC.N#Cc1ccc[n-]1 [trihexyl(tetradecyl)phosphonium 2-cyanopyrrolide] + CCCCCCn1cc[n+](C)c1C.O=S(=O)([N-]S(=O)(=O)C(F)(F)F)C(F)(F)F : viscosity is 105

Summary for this compound, CCCCCCn1cc[n+](C)c1.N#Cc1ccc[n-]1 [1-hexyl-3-methylimidazolium 2-cyanopyrrolide] + CCCCCCCCCCCCCC[P+](CCCCCC)(CCCCCC)CCCCCC.O=S(=O)([N-]S(=O)(=O)C(F)(F)F)C(F)(F)F : viscosity is 137

Summary for this compound, CCCCCCCCCCCCCC[P+](CCCCCC)(CCCCCC)CCCCCC.O=[N+]([O-])c1cn[n-]c1 [trihexyl(tetradecyl)phosphonium 4-nitropyrazolide] + CCCCCC[n+]1ccn(C)c1.O=S(=O)([N-]S(=O)(=O)C(F)(F)F)C(F)(F)F : viscosity is 97

Entry source: the NIST ThermoML archive (doi:10.1021/acs.jced.7b00221)
